Test: DRUGMATRIX: beta-Lactamase enzyme inhibition (substrate: Nitrocefin)
Set-up: species or system Bacillus cereus
Details: Not Active = under 50% inhibition at 10 µM
Readout Name: Ki

Solved entries:
Dear colleague, I am looking for the recorded Ki of the following compound: `CN1C[C@@H]2C[C@H]1CN2c1cc2c(cc1F)c(=O)c(C(=O)O)cn2C1CC1` Not Active

What value of measured Ki is listed for `N[C@@H](Cn1ccc(=O)c(O)c1)C(=O)O` ? Not Active

Name the recorded Ki for `O=C(O)c1cc(-c2ccc(F)cc2F)ccc1O` . Not Active

I am curious: what Ki value has been reported for `CC(=O)OCC(COC(C)=O)OC(C)=O` ? Not Active

Give the measured Ki of `NNCCc1ccccc1` . Not Active

Please give the measured Ki for this compound: CN(C)C(=O)Oc1cccc([N+](C)(C)C)c1.[Br-] [NEOSTIGMINE BROMIDE] Not Active

# Ki lookup, item `CC[C@H]1[C@@H]2C[C@H]3[C@@H]4N(C)c5ccccc5[C@]45C[C@@H]([C@@H]2[C@H]5O)N3[C@@H]1O` Not Active

Give the measured Ki of CC(C)(C(=O)O)c1ccc(C(O)CCCN2CCC(C(O)(c3ccccc3)c3ccccc3)CC2)cc1 (configuration not stated) [FEXOFENADINE] . Not Active

More entries:
Looking for the measured Ki of `Cc1ccc(C)c(OCCCC(C)(C)C(=O)O)c1` , can you help? Not Active

# Ki lookup, item `C[C@]12C=CC(=O)C=C1CC[C@H]1[C@@H]3C[C@@H](O)[C@](O)(C(=O)CO)[C@@]3(C)C[C@H](O)[C@@]12F` Not Active

Need Ki, item `CC(C)C[C@H]1C(=O)N2CCC[C@H]2[C@]2(O)O[C@](NC(=O)[C@@H]3C=C4c5cccc6[nH]cc(c56)C[C@H]4N(C)C3)(C(C)C)C(=O)N12` Not Active
